Source of measurements: patent US20230414607A1

Test: Plasma ranolazine pharmacokinetics before, during and after posaconazole in normal-weight and obese subjects
Type: in vivo, human
Details: human, plasma, oral, 500 mg, Day 29 (14 days after last posaconazole dose); obese subjects; ranolazine 500 mg ER; mean ± SD; read-out: Cmax
parameter: Cmax
Quote the value and follow it with the unit of measurement.

Prompt: Given the compound COc1ccccc1OCC(O)CN1CCN(CC(=O)Nc2c(C)cccc2C)CC1 (stereo not shown) , write its reported Cmax.
Completion: 719 ng/mL

---

Assay: Plasma ranolazine pharmacokinetics before, during and after posaconazole in normal-weight and obese subjects
Format: in vivo, human
Details: human, plasma, oral, 500 mg, Day 25 (10 days after last posaconazole dose); obese subjects; ranolazine 500 mg ER; mean ± SD
Description: Procedures. […] On study day 2, subjects received posaconazole (300 mg delayed-release tablet twice a day), and on the mornings of days 3-15, subjects received posaconazole (300 mg delayed-release tablet daily). […] The area under the plasma concentration curve from time 0 until the last nonzero point was determined by the linear trapezoidal method. […]
parameter: AUC(0-inf) (ng·h/mL)
The response must be a number in ng·h/mL with no trailing unit.

Prompt: Indicate its recorded AUC(0-inf); the molecule in question is COc1ccccc1OCC(O)CN1CCN(CC(=O)Nc2c(C)cccc2C)CC1 (stereo not shown)
Completion: 13800
